Experiment: Oral (per os) toxicity (LD50)
Settings: in vivo
MEASUREMENT_TYPE: LD50

# input compound: CCC(C(=O)O)C1CCC(C)C(C(C)C(O)C(C)C(=O)C(CC)C2OC3(C=CCC4(CCC(C)(C5CCC(O)(CC)C(C)O5)O4)O3)C(C)CC2C)O1 (stereo not drawn) [Deoxy-(0-8)-epi-17-salinomycin] ; wanted: its LD50
> 1000 mg/kg
